Cited source: patent US20250368627A1

# tested system: DDB1DB/DCAF15 and RBM39 R1R2 complex (Homo sapiens, UniProt Q14498+Q66K64)
# Construct: Amino acids 150 to 331 of RBM39 were cloned into pGEX4T3; GST (from vector pGEX4T3); TEV cleavage site (N); RBM39 R1R2: E. coli (pGEX4T3)
# Sequence (Q66K64 whole entry, the tested form may be a part): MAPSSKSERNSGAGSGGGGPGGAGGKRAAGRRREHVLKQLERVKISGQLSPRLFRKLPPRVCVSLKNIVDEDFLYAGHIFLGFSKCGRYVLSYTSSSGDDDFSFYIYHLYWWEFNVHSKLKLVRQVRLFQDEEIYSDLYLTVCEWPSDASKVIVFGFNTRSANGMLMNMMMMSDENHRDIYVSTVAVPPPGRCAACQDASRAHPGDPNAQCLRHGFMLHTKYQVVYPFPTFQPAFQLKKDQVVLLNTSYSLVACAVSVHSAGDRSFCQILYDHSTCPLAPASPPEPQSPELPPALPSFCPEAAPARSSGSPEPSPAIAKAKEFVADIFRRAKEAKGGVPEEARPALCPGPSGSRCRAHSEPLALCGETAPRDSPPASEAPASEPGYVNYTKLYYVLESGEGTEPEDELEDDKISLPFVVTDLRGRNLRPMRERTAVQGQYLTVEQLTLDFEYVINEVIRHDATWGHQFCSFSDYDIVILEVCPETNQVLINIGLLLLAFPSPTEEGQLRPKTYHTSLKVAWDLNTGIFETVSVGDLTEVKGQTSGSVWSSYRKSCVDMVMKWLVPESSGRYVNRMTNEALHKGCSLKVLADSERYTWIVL
# Sequence (Q14498 150-331): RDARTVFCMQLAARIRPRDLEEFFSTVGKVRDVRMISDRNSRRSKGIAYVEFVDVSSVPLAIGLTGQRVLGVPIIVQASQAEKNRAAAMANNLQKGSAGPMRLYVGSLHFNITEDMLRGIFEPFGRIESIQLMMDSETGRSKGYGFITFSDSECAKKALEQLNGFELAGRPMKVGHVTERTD
# Sequence (Q16531 with tags, fused parts or gaps DEL396-708 partner): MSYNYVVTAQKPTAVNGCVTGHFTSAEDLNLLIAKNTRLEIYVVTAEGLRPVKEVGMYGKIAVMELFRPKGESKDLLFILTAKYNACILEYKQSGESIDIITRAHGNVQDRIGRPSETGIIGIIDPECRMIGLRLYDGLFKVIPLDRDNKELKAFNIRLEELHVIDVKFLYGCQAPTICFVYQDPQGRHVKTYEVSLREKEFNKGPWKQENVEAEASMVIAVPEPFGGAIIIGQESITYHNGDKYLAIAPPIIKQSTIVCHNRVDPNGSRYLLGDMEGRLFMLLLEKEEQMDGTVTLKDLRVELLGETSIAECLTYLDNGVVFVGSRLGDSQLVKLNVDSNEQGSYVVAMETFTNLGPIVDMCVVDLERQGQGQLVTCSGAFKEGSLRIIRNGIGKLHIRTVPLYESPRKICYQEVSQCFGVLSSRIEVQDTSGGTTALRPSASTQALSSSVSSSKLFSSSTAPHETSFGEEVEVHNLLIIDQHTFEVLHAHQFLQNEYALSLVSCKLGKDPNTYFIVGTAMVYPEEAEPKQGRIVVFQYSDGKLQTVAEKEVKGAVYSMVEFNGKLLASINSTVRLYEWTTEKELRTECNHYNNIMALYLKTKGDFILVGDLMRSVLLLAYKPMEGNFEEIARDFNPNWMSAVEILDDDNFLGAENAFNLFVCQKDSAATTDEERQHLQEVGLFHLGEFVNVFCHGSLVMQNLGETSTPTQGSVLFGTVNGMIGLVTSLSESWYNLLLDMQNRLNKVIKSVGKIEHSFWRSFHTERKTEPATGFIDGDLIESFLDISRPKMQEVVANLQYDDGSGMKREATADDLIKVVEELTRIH
# measurement protocol: DCAF15 RBM39 Complex Formation Assay (FRET)
# conditions: FRET ratio Em 665/Em 615, incubated overnight at 4° C.
recorded metric: IC50

Consider the worked cases shown below.
Would you mind telling me what IC50 value was observed for N#Cc1c[nH]c2c(NS(=O)(=O)c3cnn(C[C@H](N)C(F)(F)F)c3)ccc(Cl)c12 [Compound 248] ?
< 250 nM

And what about the molecule Cc1ccc(NS(=O)(=O)c2cnn(CC3(F)CN(C(=O)OC(C)(C)C)C3)c2)c2[nH]cc(C#N)c12 [Compound 255] ?
< 250 nM

What do you have for O=S(=O)(Nc1ccc(Cl)c2c(Cl)c[nH]c12)c1cnn(C2COC2)c1 [Compound 143] ?
< 250 nM

Item: O=S(=O)(Nc1cccc2c(Cl)c[nH]c12)c1cnn(S(=O)(=O)c2cn[nH]c2)c1 [Compound 19]
< 250 nM

Item: O=S(=O)(Nc1cccc2c(Cl)c[nH]c12)c1cnn(C2CNC2)c1 [Compound 18]
250 to 1000 nM

New cases:
For the molecule Cc1ccc(NS(=O)(=O)c2cnn([C@H](CO)CF)c2)c2[nH]cc(C#N)c12 [Compound 313] , what IC50 is on record?
< 250 nM

Next: Cc1ccc(NS(=O)(=O)c2cnn(CC3CC3(F)F)c2)c2[nH]cc(C#N)c12 (stereo not shown) [Compound 79]
< 250 nM

// query: O=S(=O)(Nc1ccc(C(F)(F)F)c2c(Cl)c[nH]c12)c1cnn(CC(F)F)c1 [Compound 103]
< 250 nM

Request: CC(C)(C(N)=O)n1cc(S(=O)(=O)Nc2ccc(F)c3c(C#N)c[nH]c23)cn1 [Compound 240]
< 250 nM

What would you report for N#Cc1c[nH]c2c(NS(=O)(=O)c3cnn([C@H](CO)CF)c3)ccc(Cl)c12 [Compound 311] ?
< 250 nM

# iterate: O=S(=O)(Nc1cccc2c(Cl)c[nH]c12)c1cnn(-c2ccccc2)c1 [Compound 37]
< 250 nM

// same read-out, input: COC(=O)C(C)(C)n1cc(S(=O)(=O)Nc2ccc(Cl)c3c(Cl)c[nH]c23)cn1 [Compound 168]
< 250 nM

Ok, now Cc1ccc(NS(=O)(=O)c2cnn(C)c2Cl)c2[nH]cc(C#N)c12 [Compound 155]
< 250 nM

Also check N#Cc1c[nH]c2c(NS(=O)(=O)c3cnn([C@@H](CO)C(F)F)c3)ccc(Cl)c12 [Compound 226]
< 250 nM

Entry to check: Cc1ccc(NS(=O)(=O)c2cnn(CC(C)(C)O)c2N)c2[nH]cc(C#N)c12 [Compound 283]
< 250 nM

Also need Cc1ccc(NS(=O)(=O)c2cnn(C(C)CCO)c2)c2[nH]cc(C#N)c12 (stereo not shown) [Compound 236] , thanks.
< 250 nM

* * *

Reported IC50 values for a set of molecules
# tested system: DDB1DB/DCAF15 and RBM39 R1R2 complex (Homo sapiens, UniProt Q14498+Q66K64)
# Construct: Amino acids 150 to 331 of RBM39 were cloned into pGEX4T3; GST (from vector pGEX4T3); TEV cleavage site (N); RBM39 R1R2: E. coli (pGEX4T3)
# measurement protocol: DCAF15 RBM39 Complex Formation Assay (FRET)
# conditions: FRET ratio Em 665/Em 615, incubated overnight at 4° C.

Below: 2 molecules and their reported IC50.
Entry under review: `Cc1ccc(NS(=O)(=O)c2cnn(C3COC3)c2F)c2[nH]cc(C#N)c12` . Reported IC50?
< 250 nM

// repeat for `Cc1ccc(NS(=O)(=O)c2cnn(S(C)(=O)=O)c2)c2[nH]cc(C#N)c12` and report
< 250 nM

New cases:
What does the data say about its IC50? Entry: `Cn1ncc(S(=O)(=O)Nc2ccc(Cl)c3c(C#N)c[nH]c23)c1C#N`
250 to 1000 nM

What do you get for Cc1ccc(NS(=O)(=O)c2cnn(C3CCNC3=O)c2)c2[nH]cc(C#N)c12 (stereo not shown) ?
< 250 nM
